- System: A549 NSCLC
- experiment.notes: NCI tumour cell line growth inhibition, 48 h
readout.label: TGI

CC(=O)Oc1c(C)c2c(c3ccccc13)OC(C)(C)C2: 33.9 µM
CCCCCCCCCc1c(O)c(O)c(CCCCCCCCC)c(CCCCCCCCC)c1CCCCCCCCC: > 100 µM
Cc1cc(C)n(C(=O)CSc2nnc(SCC(=O)n3nc(C)cc3C)s2)n1: > 100 µM
CN(O)C(=S)c1ccccc1: > 100 µM
COc1ccc(CNc2cnc3cc(N)cc(N)c3n2)cc1: 54.1 µM
CC(NC(NC(C)C12CC3CC(CC(C3)C1)C2)=C(C(Cl)=C(Cl)Cl)[N+](=O)[O-])C12CC3CC(CC(C3)C1)C2 (centres undefined): 25.7 µM
CC(=O)OCC(OC(C)=O)C(OC(C)=O)C(OC(C)=O)C(/C=N\Nc1nc2ccccc2c(=O)[nH]1)=N/Nc1nc2ccccc2c(=O)[nH]1 (centres undefined): > 100 µM
C/C(CCn1[nH]c(=O)ccc1=O)=N\Nc1ccc([N+](=O)[O-])cc1[N+](=O)[O-]: > 100 µM
[O-][n+]1c(-c2ccccc2)c2nc3ccccc3nc2c2ccccc21: > 100 µM

###

Reported TGI by item:
- System: KM12 colon
- experiment.notes: NCI tumour cell line growth inhibition, 48 h
readout.label: TGI

CC(O)CN1c2ccccc2Sc2ccc(Cl)cc21 (stereo not given): > 10 µM
CC(=O)[O-].[O-]c1c(Cl)cc(Cl)cc1/C=N/Nc1ccccn1.[Zn+2]: > 100 µM
NC(N)=NC(N)=Nc1ccccc1 (tested in a mixture with another compound): > 100 µM
CC(C)CN(CC#N)CC(C)C: > 100 µM
CC(=O)N/C(=C\c1ccc(/C=C(\NC(C)=O)C2=NC3C(=O)c4ccccc4C(=O)C3N2)cc1)C1=NC2C(=O)c3ccccc3C(=O)C2N1 (stereo not given): > 100 µM

###

Where a SMILES comes first, the peptide text is derived from it. [ ]: non-standard residue; d: D form. 2Nal = N[CH](Cc1ccc2ccccc2c1)C(=O)O
What follows is a collection of GI50 values obtained with SK-MEL-2 melanoma.
readout.label: GI50

CC(C)C(NC(=O)C(CCCCN)NC(=O)C(Cc1c[nH]c2ccccc12)NC(=O)C(Cc1ccc(O)cc1)NC(=O)C(CS)NC(=O)C(N)Cc1ccc2ccccc2c1)C(=O)NC(CS)C(=O)NC(C(N)=O)C(C)O (centres undefined) (H-[2Nal]CYWKVCT-NH2; configuration not given here): > 100000 nM
Cc1cc(NNC(=O)c2ccccc2O)nc(Nc2nc3ccccc3o2)n1: 2240 nM
COC(=O)c1ccc2c(c1)c1c(C)c3ccncc3c(C)c1n2C: 750 nM
O=C(O)Cn1c2c(c3c(O)cccc31)C(=O)c1ccccc1-2: > 100000 nM

###

- System: SF-268 CNS
- experiment.notes: NCI tumour cell line growth inhibition, 48 h
readout.label: TGI

CC1=C2[C@H](c3ccccc3)C3C=CC2(c2ccccc23)N(C(=O)C(c2ccccc2)c2ccccc2)C1=O (some centres not stated): > 100 µM
C/C(CCn1[nH]c(=O)ccc1=O)=N\Nc1ccc([N+](=O)[O-])cc1[N+](=O)[O-]: > 100 µM
Cc1cc(NNC(=O)c2ccccc2O)nc(Nc2nc3ccccc3o2)n1: 40.8 µM
COc1ccc2c(CCNS(=O)(=O)c3ccccc3)c(C(C)=O)[nH]c2c1: > 100 µM
COC(=O)C1=C(O)[C@H](C(=O)OC)[C@]2(O)[C@@H](C(=O)OC)[C@H]1C[C@@H](c1ccc(OC(=O)/C=C/c3ccco3)cc1)[C@@H]2C(=O)OC: > 100 µM
O=C1CN(c2ccc(Cl)cc2)C(=O)CN1NCNN1CC(=O)N(c2ccc(Cl)cc2)CC1=O: > 100 µM
Cc1nc(Nc2ccccc2)sc1C(=O)CC(=O)C(=O)NC12CC3CC(CC(C3)C1)C2: > 100 µM
N#CCCN(CCC#N)c1ccc(/C=C2\N=C(c3cc([N+](=O)[O-])ccc3Cl)N(NC(=O)CC(=O)Nc3ccccc3Cl)C2=O)cc1: > 100 µM
COC(=O)c1ccc2c(c1)c1c(C)c3ccncc3c(C)c1n2C: > 100 µM
[O-][n+]1c(-c2ccccc2)c2nc3ccccc3nc2c2ccccc21: > 100 µM
CCC1=NC(C(F)(F)F)(C(F)(F)F)N=C(/N=C(/N)N(C)C(C(C)C)P(=O)(OC(C)C)OC(C)C)O1 (configuration not stated): > 100 µM
O=[N+]([O-])c1cccc2nc3ccccc3c(NCCCN3CCCCC3)c12: 0.199 µM
